# assayRemarks: NCI Yeast Anticancer Drug Screen. Data for the sgs1 mgt1 strain (AID 161);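 note: 0% = growth of cultures given vehicle only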
# settings: S. cerevisiae sgs1 mgt1 strain, at 50.0 µM, stronger effect = higher value
About 79,000 compounds went through this panel and 15% of them were active in at least one assay; those are over-represented in the sample as a whole.
Exercise: state measured growth inhibition for each of the molecules provided.
One number for each entry, in %.

Reference set (2 entries):
[[record]]
molecule = "Cc1cc2cccnc2c2ncccc12"
property = "growth inhibition"
valuereported = 99.1

[[record]]
molecule = "COc1cc(NCc2ccc3nc(N)nc(N)c3c2C)cc(OC)c1OC (tested in a mixture with another compound)"
property = "growth inhibition"
valuereported = 43.2


// sample COC(=O)c1nc(=S)[nH]c(C(=O)OC)c1C(=O)c1ccc(Cl)c(Cl)c1 , its growth inhibition was 99.3

###

# assayRemarks: NCI Yeast Anticancer Drug Screen. Data for the sgs1 mgt1 strain (AID 161);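 note: 0% = growth of cultures given vehicle only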
# settings: S. cerevisiae sgs1 mgt1 strain, at 5.0 µM (retest, dose inferred, filed as 0.5)
Compounds without any hit were thinned out: in the full panel of roughly 79,000, 15% have a hit. Active and inactive are the calls of the source. Cut-off read from the data, not from the text of the source: active = growth inhibition above about 70%; inactive = the rest.
Field 'call' accepts 1 (yes) for active, 0 (no) for inactive

Would you please look over these solved cases?
[[record]]
compound = "CC(C)N=C(N)/N=C(\\N)Nc1ccc2ccc3ccccc3c2c1"
labelvalue = "0 (no)"

[[record]]
compound = "Cc1ccccc1N=C(N)Nc1ccccc1C (tested in a mixture with another compound)"
labelvalue = "0 (no)"

[[record]]
compound = "O=C1C=CC(=O)N1C1CCCCCCCCCCC1"
labelvalue = "0 (no)"


Incoming: Which outcome did this test record for the compound CCCCCCCCc1cc(Cl)c(O)c(Cl)c1 ?
Outgoing: 0 (no)

Incoming: Hi, do you know how COc1ccc2c(c1)C(OC)C1c3c(cc4c(c3-2)OCO4)CCN1C (stereo not given) came out in this test?
Outgoing: 0 (no)

Incoming: # fetch the recorded call for Cc1cc(C(=O)c2ccc(Cl)cc2)ccc1O here
Outgoing: 0 (no)

###

# assayRemarks: NCI Yeast Anticancer Drug Screen. Data for the mec2-1 strain (AID 157)
# settings: S. cerevisiae mec2-1 strain, at 50.0 µM (retest, dose inferred, filed as 5.0), stronger effect = higher value
# Procedure: Growth inhibition of yeast strains with defined genetic alterations is measured as a screen for potential anti-cancer activity. Selected strains with alterations in DNA damage repair or cell cycle control were exposed to compounds and growth inhibition was measured relative to vehicle treated controls. The strain used in this assay is mec2-1
The panel holds about 79,000 compounds, 15% with a hit somewhere; the sample as a whole holds those more often.
property: growth inhibition (%)
Give bare numbers, in %.

Recorded results for 5 molecules are shown here.
[[record]]
molecule = "NC(=S)N/N=C/c1ncccc1O"
valuereported = 19

[[record]]
molecule = "CCCCCCN(CCCCCC)CCCNc1nccc2ccccc12"
valuereported = 14

[[record]]
molecule = "C/C(=N\\Nc1ccc(Cl)cc1)C(=O)O"
valuereported = 98

[[record]]
molecule = "CC(C)=C1C=C2CC[C@@H]3[C@](C)(CCC[C@@]3(C)C(=O)O)[C@H]2CC1"
valuereported = 95

[[record]]
molecule = "CC(=O)Oc1c(Br)cc(Br)cc1C(OC(C)=O)OC(C)=O"
valuereported = 87


Below are 5 molecules. Give each one its growth inhibition.
1. CCCCCCCCCCCCCCCCCC1=NCCCN1CCO
2. O=[N+]([O-])/C(=C/c1ccccc1)c1ccccc1
3. C/C(=N\NC(=S)N1CCC1)c1ccccn1
4. S=c1[nH]c(=S)c2[nH]c(=S)[nH]c2[nH]1
5. CC(C)NC(=O)C(C)O (stereo not given)

Outgoing:
[5, 99, 98, 6, 2]

Provide the reported growth inhibition of each entry below, same order.
1. CCC(C)(C)N(CC(=O)O)CC(=O)O
2. COC(=O)c1cc([N+](=O)[O-])cc([N+](=O)[O-])c1Cl

Outgoing:
1. -5
2. 99

Count: 2. Required value per item: growth inhibition.
1. CCCCCCCCCCCCCCCCSC(=NCC)NCC
2. O=C/C=C/c1ccc([N+](=O)[O-])cc1

Outgoing:
1: 99; 2: 100

Recorded growth inhibition (molecule S=c1sc2ccccc2n1CCNc1ccccc1 ): 73

###

# assayRemarks: NCI Yeast Anticancer Drug Screen. Data for the mlh1 rad18 strain (AID 175)
# settings: S. cerevisiae mlh1 rad18 strain growth inhibition; at 50.0 µM (retest, dose inferred, filed as 5.0); stronger effect = higher value
About 79,000 compounds went through this panel and 15% of them were active in at least one assay; those are over-represented in the sample as a whole.
# label = true if growth inhibition >= 70% else false

Some entries whose results are on file:
[[record]]
compound = "Oc1ccc(/C=C/c2ccc(Cl)cc2)cc1"
labelvalue = "true"

[[record]]
compound = "C=C(CO)C(=O)OC1CC(=C)C2CC(O)C(C)C2C2OC(=O)C(=C)C12 (configuration not stated)"
labelvalue = "true"

[[record]]
compound = "O=C(c1ccccc1)c1ccc(O)c2ncccc12"
labelvalue = "true"

[[record]]
compound = "O=C(O)c1ccc(-c2ccccc2)cc1"
labelvalue = "false"

[[record]]
compound = "C[C@@H]1CCC([C@@H](C)[C@H]2CC[C@H]3[C@@H]4CC[C@H]5C[C@@H](O)CC[C@]5(C)[C@H]4CC[C@]23C)=NC1"
labelvalue = "true"

[[record]]
compound = "CCOC(=O)C1(C)CCCC1N (configuration not stated)"
labelvalue = "true"


Incoming: In plain terms: is recorded growth inhibition at least 70% for COc1cc(/C=C2\SC(=S)N(/C=C/c3nc4ccccc4[nH]c3=O)C2=O)cc(OC)c1OC ?
Outgoing: false

Incoming: Please check the record S=C=Nc1ccc(N2CCOCC2)cc1 and state if its growth inhibition is at or above 70%.
Outgoing: true

Incoming: I'd appreciate it if you could say whether CCCCN(CCCC)C(=O)C(C)OC(C)=O (configuration not stated) has growth inhibition at least equal to 70%.
Outgoing: false

###

# assayRemarks: NCI Yeast Anticancer Drug Screen. Data for the mlh1 rad18 strain (AID 175)
# settings: S. cerevisiae mlh1 rad18 strain growth inhibition; at 5.0 µM (retest, dose inferred, filed as 0.5)
This is part of a sample that, as a whole, favours compounds with a hit. Of some 79,000 tested, about 15% had one in any assay. Active and inactive are the calls of the source. Cut-off read from the data, not from the text of the source: active = growth inhibition above about 70%; inactive = the rest.
Response enum: true (1) for active, false (0) for inactive

Incoming: Can you look up the reported call for CC(C)Nc1ccc(Nc2ccc(NC(C)C)cc2)cc1 for me?
Outgoing: false (0)

###

# assayRemarks: NCI Yeast Anticancer Drug Screen. Data for the sgs1 mgt1 strain (AID 161);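 note: 0% = growth of cultures given vehicle only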
# settings: S. cerevisiae sgs1 mgt1 strain, at 5.0 µM (retest, dose inferred, filed as 0.5), stronger effect = higher value
About 79,000 compounds went through this panel and 15% of them were active in at least one assay; those are over-represented in the sample as a whole. Calls of active or inactive are those of the source. No stated cut-off is given here; in the data, active means growth inhibition above about 70%; inactive means the rest.
property: growth inhibition

Worked examples, 3 molecules total:
[[record]]
molecule = "O=C(CBr)c1ccc(OC(=O)c2ccccc2)cc1"
valuereported = "100% (active)"

[[record]]
molecule = "CN=C(N)N/N=C(\\c1ccccc1)c1ccc(Br)cc1"
valuereported = "13% (inactive)"

[[record]]
molecule = "CN(C)CCSC1=Nc2ccc(Cl)cc2C(c2ccccc2Cl)N(C)C1 (centres undefined)"
valuereported = "3% (inactive)"


Next up:
Form: molecule = COc1ccc(C(Cn2ccnc2)Sc2ccc(Cl)c(Cl)c2)cc1 (centres undefined) ; growth inhibition = 72% (active)

###

# assayRemarks: NCI Yeast Anticancer Drug Screen. Data for the mlh1 rad18 strain (AID 175)
# settings: S. cerevisiae mlh1 rad18 strain growth inhibition; at 50.0 µM (retest, dose inferred, filed as 5.0)
# Protocol: Growth inhibition of yeast strains with defined genetic alterations is measured as a screen for potential anti-cancer activity. Selected strains with alterations in DNA damage repair or cell cycle control were exposed to compounds and growth inhibition was measured relative to vehicle treated controls. The strain used in this assay is mlh1 rad18
The panel holds about 79,000 compounds, 15% with a hit somewhere; the sample as a whole holds those more often. The source made the active and inactive calls. Rule as the data show it: active = growth inhibition above about 70%; inactive = the rest.
Please reply with one of these outcomes: active, inactive

Before answering, review these 2 worked examples.
[[record]]
compound = "Nc1ccc(Oc2ccccc2)c(Cl)c1"
labelvalue = "active"

[[record]]
compound = "Cc1cc(C)c([I+]c2c(C)cc(C)cc2C)c(C)c1"
labelvalue = "active"


Incoming: Dear all, I need the recorded test outcome for CCOc1cc(F)c([N+](=O)[O-])cc1[N+](=O)[O-] , thank you.
Outgoing: active

Incoming: Please share the test call associated with CC(C)(C)c1cc([N+](=O)[O-])c(O)c([N+](=O)[O-])c1 .
Outgoing: active

Incoming: Fill in: this test's call for CCC(=O)c1cc([N+](=O)[O-])c(Br)s1 is ___
Outgoing: active

Incoming: GET /call?item= CCOC(=O)C(NC(C)=O)C(=O)c1ccccc1 (stereo not drawn) returns the recorded outcome of this test.
Outgoing: inactive

Incoming: // return assay outcome for OC(CSc1ccccc1)CN1CCN(c2ccc(Cl)cc2)CC1 (stereo not drawn)
Outgoing: active

Incoming: Which outcome was entered for the compound Cc1cc(O)c(O)c(C(C)(C)CC(C)(C)C)c1 in this test?
Outgoing: active
